# credit: patent US20240352105A1

Reported Tagg by item:
- assay-text: Thermostability (Tm, Tonset, Tagg) by Nanotemper DSF
- Assay type: physicochemical
- Parameters: key: temperatures in °C
- condition: anti-Fel d1 VHH
experimental-endpoint: Tagg

INSERT INTO assay_data (molecule, measured) VALUES
  ('SDAB22110-4-3-G08: anti-Fel d1 VHH clone, SEQ ID NO: 56 (protein) VHH: DVQLVESGGGLVQPGGSLRLSCAASGFTFSLYYMSWYRQVPGKERELVATITSGTHATTYADSVKGRFTISRDNAKNTVSLQMNSLKREDTGVYYCKRTNAGQDPWGQGTQVTVSS', 42.29),
  ('SDAB22110-4-3-B02: anti-Fel d1 VHH clone, SEQ ID NO: 54 (protein) VHH: QVQLVESGGGLVQPGGSLRLSCVASGFTFSFYTMEWYRQAAGKQRELVAGLTASGTTHYADSAKGRFTISRDNAWNTVFLQMNGLKPEDTAVYYCNAYSGYRDYWGQGTQVTVSL', 40.93),
  ('SDAB22110-1-1-B9-1: anti-Fel d1 VHH clone, SEQ ID NO: 50 (protein) VHH: DVQLVESGGGWVQPGGSLRLSCAASGFTFTSYALSWVRQAPGKGLEWVSLADARGTSTTYADSVKGRFTISKDNPRNTLYLLMNSLKPEDTAVYYCTKGFDGNWYPDYDYWGQGTQVTVSS', 41.73);
